The reported measurements were obtained from patent US20080221060A1.

- testSystem: adenosine receptors (rat striatal membranes, [3H]-CGS21680) (Rattus norvegicus, UniProt P30543)
- Sequence (P30543 whole entry): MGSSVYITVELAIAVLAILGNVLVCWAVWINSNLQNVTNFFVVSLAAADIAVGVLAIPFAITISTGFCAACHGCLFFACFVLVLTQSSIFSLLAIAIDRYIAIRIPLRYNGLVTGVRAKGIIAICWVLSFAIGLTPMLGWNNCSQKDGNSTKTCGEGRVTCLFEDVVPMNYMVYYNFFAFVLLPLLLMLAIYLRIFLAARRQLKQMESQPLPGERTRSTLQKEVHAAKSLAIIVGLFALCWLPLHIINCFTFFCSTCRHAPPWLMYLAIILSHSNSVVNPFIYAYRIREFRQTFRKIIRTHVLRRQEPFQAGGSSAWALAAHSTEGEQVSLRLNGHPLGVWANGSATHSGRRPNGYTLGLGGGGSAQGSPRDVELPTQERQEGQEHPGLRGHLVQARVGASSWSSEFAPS
- protocolNotes: Ki from displacement of [3H]-CGS21680 in rat striatal membranes at pH 5.5 and pH 7.4
- Type: binding
- Set-up: from tissue; host or cells: rat striatum (membranes)
- reportedConditions: pH 7.4; 2 nM [3H]-CGS21680, 90 minutes at 22° C.; read-out: (Ki) nM (pH 7.4)
Would you kindly list log10(Ki) for each of these compounds?
Log10 applied to Ki; unit prior to transform: nM.

# annotated cases, reported log10(Ki) shown
compound | reportedValue
Cc1cc(Oc2nc(N)c3ncn([C@@H]4O[C@H](CO)[C@@H](O)[C@H]4O)c3n2)ccc1F | 3.49
Nc1nc(Oc2cccc(-c3ccccc3)c2)nc2c1ncn2[C@@H]1O[C@H](CO)[C@@H](O)[C@H]1O | 2.79
CC(C)c1cccc(Oc2nc(N)c3ncn([C@@H]4O[C@H](CO)[C@@H](O)[C@H]4O)c3n2)c1 | 2.75
CCCCCCNc1nc(N)c2nc(C)n([C@@H]3O[C@H](CO)[C@@H](O)[C@H]3O)c2n1 | 3.68
Cc1ccccc1Oc1nc(N)c2ncn([C@@H]3O[C@H](CO)[C@@H](O)[C@H]3O)c2n1 | 4.34

Can you give me log10(Ki) for all of these, one by one?
1. COCCN(C)c1ncnc2c1ncn2[C@@H]1O[C@H](CO)[C@@H](O)[C@H]1O
2. Nc1nc(NC2CC3CCC2C3)nc2c1ncn2[C@@H]1O[C@H](CO)[C@@H](O)[C@H]1O (stereo partly shown)

A:
4.11
2.08

----------
- testSystem: adenosine receptors (rat striatal membranes, [3H]-CGS21680) (Rattus norvegicus, UniProt P30543)
- protocolNotes: Ki from displacement of [3H]-CGS21680 in rat striatal membranes at pH 5.5 and pH 7.4
- Type: binding
- Parameters: from tissue; host or cells: rat striatum (membranes)
- reportedConditions: pH 5.5; 2 nM [3H]-CGS21680, 90 minutes at 22° C.; read-out: (Ki) nM (pH 5.5)
Would you kindly list Ki for each of these molecules?
One number for each entry, in nM.

molecule | Ki / nM
CN(Cc1ccccc1)c1ncnc2c1ncn2[C@@H]1O[C@H](CO)[C@@H](O)[C@H]1O [Compound 43] | 7
Nc1nc(Nc2ccccc2)nc2c1ncn2[C@@H]1O[C@H](CO)[C@@H](O)[C@H]1O [Compound 26, 2-phenylamino adenosine] | 5
Nc1nc(Oc2ccc3c(c2)CCC3)nc2c1ncn2[C@@H]1O[C@H](CO)[C@@H](O)[C@H]1O [Compound 17] | 12
CCNC(=O)NC[C@H]1O[C@@H](n2cnc3c(N)ncnc32)[C@H](O)[C@@H]1O [Compound 56] | 40
Cc1nc2c(N)nc(NC3CCCC3)nc2n1[C@@H]1O[C@H](CO)[C@@H](O)[C@H]1O [Compound 60] | 49

Can you give me Ki for all of these, one by one?
1. CC(C)c1cccc(Oc2nc(N)c3ncn([C@@H]4O[C@H](CO)[C@@H](O)[C@H]4O)c3n2)c1 [Compound 18]
2. CCCCOc1nc(N)c2ncn([C@@H]3O[C@H](CO)[C@@H](O)[C@H]3O)c2n1 [Compound 4]

A:
16
11

----------
- testSystem: adenosine receptors (rat striatal membranes, [3H]-CGS21680) (Rattus norvegicus)
- protocolNotes: Ki from displacement of [3H]-CGS21680 in rat striatal membranes at pH 5.5 and pH 7.4
- Format: binding
- Parameters: from tissue; host or cells: rat striatum (membranes)
- reportedConditions: pH 5.5; 2 nM [3H]-CGS21680, 90 minutes at 22° C.; read-out: (Ki) nM (pH 5.5)
Would you kindly list Ki for each of these compounds?
One number for each entry, in nM.

Can you give me Ki for all of these, one by one?
1. CC(C)CCN(C)c1nc(N)c2ncn([C@@H]3O[C@H](CO)[C@@H](O)[C@H]3O)c2n1
2. Cc1cc(Oc2nc(N)c3ncn([C@@H]4O[C@H](CO)[C@@H](O)[C@H]4O)c3n2)ccc1F
3. CC[C@@H](C)Nc1nc(N)c2ncn(C3OC(CO)C(O)C3O)c2n1 (stereo partly drawn)
4. OC[C@H]1O[C@@H](n2cnc3c(N4CCNCC4)ncnc32)[C@H](O)[C@@H]1O
5. Nc1nc(Oc2cccc(-c3ccccc3)c2)nc2c1ncn2[C@@H]1O[C@H](CO)[C@@H](O)[C@H]1O
6. COc1nc(N)c2ncn([C@@H]3O[C@H](CO)[C@@H](O)[C@H]3O)c2n1
7. CC[C@H](C)Nc1nc(N)c2ncn(C3OC(CO)C(O)C3O)c2n1 (stereo partly drawn)
8. Nc1nc(NC2CCCC2)nc2c1ncn2[C@@H]1O[C@H](CO)[C@@H](O)[C@H]1O

A:
1: 26; 2: 43; 3: 33; 4: 38; 5: 0.7; 6: 1.5; 7: 29; 8: 2

----------
- testSystem: adenosine receptors (rat striatal membranes, [3H]-CGS21680) (Rattus norvegicus, UniProt P30543)
- protocolNotes: Ki from displacement of [3H]-CGS21680 in rat striatal membranes at pH 5.5 and pH 7.4
- Format: binding
- Design: from tissue; host or cells: rat striatum (membranes)
- reportedConditions: (Ki) nM (pH 5.5), pH 5.5; 2 nM [3H]-CGS21680, 90 minutes at 22° C.
testReadout: Ki (nM)
Give bare numbers, in nM.

smilesInput | testReadout | unitAnnotation | reportedValue
CC(C)=CCNc1ncnc2c1ncn2[C@@H]1O[C@H](CO)[C@@H](O)[C@H]1O | Ki | nM | 91.5

Q: State its Ki for this molecule: CN(C)c1ncnc2c1ncn2[C@@H]1O[C@H](CO)[C@@H](O)[C@H]1O
A: 42

----------
- protocolNotes: plasma concentrations after single oral dosing in human volunteers
- Format: in vivo
- reportedConditions: single oral dose 28 mg
testReadout: Cmax
Reply with the number and its unit after it.

Q: State its Cmax for this compound: COc1nc(N)c2ncn([C@@H]3O[C@H](CO)[C@@H](O)[C@H]3O)c2n1 [Compound 1, 2-methoxyadenosine]
A: 600 nM

----------
- protocolNotes: plasma concentrations after single oral dosing in human volunteers
- Format: in vivo
- reportedConditions: single oral dose 3.5 mg
testReadout: Cmax (nM)
Numbers only, in nM.

Q: State its Cmax for this compound: COc1nc(N)c2ncn([C@@H]3O[C@H](CO)[C@@H](O)[C@H]3O)c2n1 [Compound 1, 2-methoxyadenosine]
A: 130

----------
- testSystem: UniProt:P30543
- protocolNotes: Ki from displacement of [3H]-CGS21680 in rat striatal membranes at pH 5.5 and pH 7.4
- Format: binding
- Set-up: from tissue; host or cells: rat striatum (membranes)
- reportedConditions: pH 7.4; 2 nM [3H]-CGS21680, 90 minutes at 22° C.; read-out: (Ki) nM (pH 7.4)
testReadout: Ki
Reply with the number and its unit after it.

smilesInput | testSystem | Ki
OC[C@H]1O[C@@H](n2cnc3c(N4CCNCC4)ncnc32)[C@H](O)[C@@H]1O | UniProt:P30543 | 5000 nM
Nc1nc(Oc2cc(F)ccc2F)nc2c1ncn2[C@@H]1O[C@H](CO)[C@@H](O)[C@H]1O | UniProt:P30543 | 2500 nM
Nc1nc(OCC(F)F)nc2c1ncn2[C@@H]1O[C@H](CO)[C@@H](O)[C@H]1O | UniProt:P30543 | 780 nM

Q: State its Ki for this compound: Cc1ccc(Oc2nc(N)c3ncn([C@@H]4O[C@H](CO)[C@@H](O)[C@H]4O)c3n2)cc1
A: 720 nM

----------
- testSystem: adenosine receptors (rat striatal membranes, [3H]-CGS21680) (Rattus norvegicus)
- protocolNotes: Ki from displacement of [3H]-CGS21680 in rat striatal membranes at pH 5.5 and pH 7.4
- Assay type: binding
- Set-up: from tissue; host or cells: rat striatum (membranes)
- reportedConditions: (Ki) nM (pH 7.4), pH 7.4; 2 nM [3H]-CGS21680, 90 minutes at 22° C.
testReadout: Ki (nM)
Numbers only, in nM.

compound | testReadout | reportedValue
CN(C)c1ncnc2c1ncn2[C@@H]1O[C@H](CO)[C@@H](O)[C@H]1O [Compound 41] | Ki | 450000

Below: the item to evaluate.
Q: State its Ki for this compound: CC(C)=CCNc1ncnc2c1ncn2[C@@H]1O[C@H](CO)[C@@H](O)[C@H]1O [Compound 42]
A: 8600

----------
- testSystem: adenosine receptors (rat striatal membranes, [3H]-CGS21680) (Rattus norvegicus, UniProt P30543)
- protocolNotes: Ki from displacement of [3H]-CGS21680 in rat striatal membranes at pH 5.5 and pH 7.4
- Assay type: binding
- Parameters: from tissue; host or cells: rat striatum (membranes)
- reportedConditions: pH 5.5; 2 nM [3H]-CGS21680, 90 minutes at 22° C.; read-out: (Ki) nM (pH 5.5)
testReadout: Ki (nM)
One number for each entry, in nM.

compound | Ki, nM
COc1nc(NCc2ccccc2)c2ncn([C@@H]3O[C@H](CO)[C@@H](O)[C@H]3O)c2n1 [Compound 58] | 4.5
N#Cc1ccc(Oc2nc(N)c3ncn([C@@H]4O[C@H](CO)[C@@H](O)[C@H]4O)c3n2)cc1 [Compound 7] | 4

Can you give me Ki for all of these, one by one?
1. N#Cc1nc(N)c2ncn([C@@H]3O[C@H](CO)[C@@H](O)[C@H]3O)c2n1 [Compound 38]
2. Nc1nc(OC2CC(F)(F)C2(F)F)nc2c1ncn2[C@@H]1O[C@H](CO)[C@@H](O)[C@H]1O (stereo partly drawn) [Compound 35]
3. Nc1nc(Nc2ccc(F)cc2)nc2c1ncn2[C@@H]1O[C@H](CO)[C@@H](O)[C@H]1O [Compound 28]
4. Nc1nc(OCC2CCCC2)nc2c1ncn2[C@@H]1O[C@H](CO)[C@@H](O)[C@H]1O [Compound 32]
5. CN(Cc1cccc(Br)c1)c1ncnc2c1ncn2[C@@H]1O[C@H](CO)[C@@H](O)[C@H]1O [Compound 44]
6. NC(=O)[C@H]1O[C@@H](n2cnc3c(N)ncnc32)[C@H](O)[C@@H]1O [Compound 50]
7. CCCCCCNc1nc(N)c2nc(C)n([C@@H]3O[C@H](CO)[C@@H](O)[C@H]3O)c2n1 [Compound 61]
8. Nc1nc(Oc2ccc(F)cc2F)nc2c1ncn2[C@@H]1O[C@H](CO)[C@@H](O)[C@H]1O [Compound 10]

A:
1. 25
2. 11
3. 10
4. 0.2
5. 29
6. 9
7. 130
8. 16
